Data provenance: patent US20240166599A1

Catalogue of pEC50 values
# Subject Of Test: human 5-HT2A (h5-HT2A) receptor (Homo sapiens)
# Sequence (P28223 whole entry): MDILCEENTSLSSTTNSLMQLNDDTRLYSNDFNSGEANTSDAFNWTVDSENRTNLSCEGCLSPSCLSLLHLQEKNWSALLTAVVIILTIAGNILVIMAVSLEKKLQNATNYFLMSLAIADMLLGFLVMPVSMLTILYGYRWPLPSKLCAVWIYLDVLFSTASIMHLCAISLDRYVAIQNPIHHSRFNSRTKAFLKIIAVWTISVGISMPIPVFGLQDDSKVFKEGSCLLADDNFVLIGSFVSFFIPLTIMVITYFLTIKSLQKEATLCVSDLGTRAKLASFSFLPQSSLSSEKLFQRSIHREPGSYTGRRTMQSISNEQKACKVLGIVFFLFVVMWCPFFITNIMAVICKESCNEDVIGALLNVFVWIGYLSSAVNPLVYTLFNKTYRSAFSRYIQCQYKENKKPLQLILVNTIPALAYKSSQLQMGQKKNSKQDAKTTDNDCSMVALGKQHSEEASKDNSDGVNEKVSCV
# Experimental Details: FLIPR assay, human 5-HT2A, agonist mode
# Experimental: I.c. Experimental Methods and Procedures: • 1. […] One day before the assays, the cells were detached using TrypLE™ Express and cells were counted using cell counter. […] 20000 cells/well were seeded in 30 μl/well culture medium to a 384-well cell plate and cells were incubated overnight at 37° C., 5% (v/v) CO2. • 4. On the assay day, 2×dye solution was prepared following the manual of the FLIPR® Calcium 6 Assay Kit: i. […] • i. […] Calculated the percentage activation by using following equation: […]
pEC50: −log10 of the molar value.
Observation Type: pEC50

• CN(C)CCc1c[nH]c2ccccc12 [DMT, N,N-dimethyltryptamine, reference compound] = > 6.00
• [2H]c1[nH]c2c([2H])c([2H])c([2H])c([2H])c2c1CCN(C)C = > 6.00
• [2H]C([2H])([2H])N(C([2H])([2H])[2H])C([2H])([2H])C([2H])([2H])c1c[nH]c2ccccc12 = > 6.00
